Measured glycan array binding signal (z-score) values are reported for all entries that follow.
Target: GalNAc(b1-3)Gal(a1-4)Gal(b1-4)GlcNAc(b1-3)Gal(b1-4)Glc
Assay: glycan array binding signal (z-score within array); higher = stronger binding
Conditions: glycan notation: IUPAC condensed, linker removed
This is one part of a sample in which the strongest signals are shown more often than they occur.
When you answer, write just the number.

1. Aap arpt (Staphylococcus epidermidis) (protein) NNEAPQMSSTLQAEEGSNAEAPQSEPTKAEEGGNAEAAQSEPTKAEEGGNAEAPQSEPTKAEEGGNAEAAQSEPTKTEEGSNVKAAQSEPTKAEEGSNAEAPQSEPTKTEEGSNAKAAQSEPTKAEEGGNAEAAQSEPTKTEEGSNAEAPQSEPTKAEEGGYAEAPQSEPTKTEEGGNAEAPNVPTIKA ... -0.809

[Q] Tell us which glycan array binding signal (z-score) value is on record for Epa2 (Candida glabrata) (protein) MGSSHHHHHHSSGLVPRGSHMASSKDPTSFPMGCSPQVLKTQPGLAVKLYSYGHPVPGCAYNTYQYPDFPRSGYKKERKLADITGVNGRIDIDLKPNDPCRVLSGNLPSNYNYQNTLTYTNFTMILYGYFQPKVTGYHTFNLEADDLLFMNLGAGNAFDCCRAESTLDNFGNYQSYSIWGTDKATADLTVFLVSGIYYPIRLFYVNRDNNAVLDFSFSTEFNKEIIHDFTSYFFSASDEEQCPGNI
[A] 1.03

[Q] Tell us which glycan array binding signal (z-score) value is on record for SSA (Sclerotinia sclerotiorum), A7XUK7 (protein) MGFKGVGTYEIVPYQAPSLNLNAWEGKLEPGAVVRTYTRGDKPSDNAKWQVALVAGSGDSAEYLIINVHSGYFLTATKENHIVSTPQISPTDPSARWTIKPATTHQYEVFTINNKVSELGQLTVKDYSTHSGADVLSASAKTADNQKWYFDAK
[A] 6.97
